Provide the recorded inhibition for the entries that follow.
- Test system: Bacteria
- procedure.text: Inhibition of bacterial NDM-1 expressed in Escherichia coli BL21 (DE3) at 20 uM using cefazolin as substrate by spectrometry analysis relative to control

The following compounds have reported results that may help.
NS(=O)(=O)c1ccc(NC(=O)CCc2ccccc2)cc1 < 20%
CC(C)(C)c1ccc(C(=O)Nc2ccc(S(N)(=O)=O)cc2)cc1 < 20%

Please turn your attention to the following entry.
Item NS(=O)(=O)c1ccc(NC(=O)c2cccc([N+](=O)[O-])c2)cc1 : provide inhibition
< 20%

###

- Test system: Bacteria
- procedure.text: Inhibition of beta-lactamase ImiS (unknown origin) expressed in Escherichia coli BL21 (DE3) assessed as potentiation of meropenem induced antibacterial activity by measuring meropenem MIC at 64 ug/ml incubated for 16 hrs by CLSI broth microdilution method (reference value: 64 ug/ml)
- particulars: dose 64.0 µg/ml
Provide the recorded MIC for the entries that follow.
One number for each entry, in µg/mL.

NS(=O)(=O)c1cccc(NC(=O)c2ccc(Cl)cc2)c1 16
NS(=O)(=O)c1ccc(NC(=O)c2ccccc2)cc1 32
NS(=O)(=O)c1ccc(NC(=O)CCc2ccccc2)cc1 32

For the 3 molecules below, give their MIC values.
1. CC(C)(C)c1ccc(C(=O)Nc2cccc(S(N)(=O)=O)c2)cc1
2. CC(C)(C)c1ccc(C(=O)Nc2ccccc2S(N)(=O)=O)cc1
3. NS(=O)(=O)c1ccc(NC(=O)c2cccc([N+](=O)[O-])c2)cc1

16
32
32

###

- Test system: Bacteria
- procedure.text: Inhibition of beta-lactamase ImiS (unknown origin) in expressed Escherichia coli BL21 (DE3) assessed as potentiation of imipenem induced antibacterial activity by measuring imipenem MIC at 64 ug/ml incubated for 16 hrs by CLSI broth microdilution method (reference value: 16 ug/ml)
- particulars: dose 64.0 µg/ml
endpoint: MIC (µg/mL)
One number for each entry, in µg/mL.

The following molecules have reported results that may help.
CCN(CC)c1ccc2c(-c3ccccc3C(=O)Oc3ccc(S(N)(=O)=O)cc3)c3ccc(=[N+](CC)CC)cc-3oc2c1 8
NS(=O)(=O)c1cccc(NC(=O)c2cccc(Br)c2)c1 4
NS(=O)(=O)c1cccc(NC(=O)c2ccc(Cl)cc2)c1 4
CC(C)(C)c1ccc(C(=O)Nc2ccc(S(N)(=O)=O)cc2)cc1 8

For the 3 molecules below, give their MIC values.
1. NS(=O)(=O)c1ccc(NC(=O)c2ccc(O)cc2)cc1
2. NS(=O)(=O)c1ccc(NC(=O)c2cccc([N+](=O)[O-])c2)cc1
3. NS(=O)(=O)c1ccc(NC(=O)CCc2ccccc2)cc1

1: 8; 2: 8; 3: 8

###

- Tested on: Bacteria
- procedure.text: Inhibition of bacterial ImiS expressed in Escherichia coli BL21 (DE3) at 20 uM using imipenem as substrate by spectrometry analysis relative to control
endpoint: inhibition

CC(C)(C)c1ccc(C(=O)Nc2ccc(S(N)(=O)=O)cc2)cc1 > 70%

For the 5 molecules below, give their inhibition values.
1. NS(=O)(=O)c1ccc(NC(=O)c2ccc(C(F)(F)F)cc2)cc1
2. NS(=O)(=O)c1cccc(NC(=O)CCc2ccccc2)c1
3. NS(=O)(=O)c1cccc(NC(=O)c2ccccc2)c1
4. NS(=O)(=O)c1ccc(NC(=O)c2ccccc2)cc1
5. NS(=O)(=O)c1ccc(NC(=O)c2ccc(O)cc2)cc1

1: > 70%; 2: > 70%; 3: > 70%; 4: > 70%; 5: > 70%
